- TESTED ON: Human Fc (human)
- METHOD SUMMARY: ELISA, negative control
RECORDED METRIC: optical density (OD)
Write the value in OD as a bare number.

{"columns": ["BINDER", "optical density [OD]"],
 "data": [
  ["371_F08 (antibody, V domains shown) VH: EVQLLESGGGLVQPGGSLRLSCAASGFTFDDYSMNWVRQAPGKGLEWVSGINYNGGYTGYADSVKGRFTISRDNSKNTLYLQMNSLRAEDTAVYYCARSANWHDTALDYWGQGTLVTVSS VL: DIQMTQSPSSLSASVGDRVTITCRASQSIVSYVNWYQQKPGKAPKLVIYAATSRHSGVPSRFSGSGSGTDFTLTISSLQPEDFATYYCQQSYESPLTFGGGTKVEIK", 0.301]
]}

query: For the binder shown here, 372_C07 (antibody, V domains shown) VH: EVQLLESGGGLVQPGGSLRLSCAASGFTFSDYSMNWVRQAPGKGLEWVSNINYNSGYTSYADSVKGRFTISRDNSKNTLYLQMNSLRAEDTAVYYCARSANWHDTHLDYWGQGTLVTVSS VL: DIQMTQSPSSLSASVGDRVTITCRASQSILSYLNWYQQKPGKAPKLVIYAATSRHSGVPSRFSGSGSGTDFTLTISSLQPEDFATYYCQQSDNTPLTFGGGTKVEIK , give the reported optical density.
result: 0.279

query: For the binder shown here, 367_H06 (antibody, V domains shown) VH: EVQLLESGGGLVQPGGSLRLSCAASGFTFSSYGMNWVRQAPGKGLEWVSNINYNGGYTGYADSVKGRFTISRDNSKNTLYLQMNSLRAEDTAVYYCARSANWHDTHLDYWGQGTLVTVSS VL: DIQMTQSPSSLSASVGDRVTITCRASQSIITYLNWYQQKPGKAPKLLIYAATSRASGVPSRFSGSGSGTDFTLTISSLQPEDFATYYCQQSYDTPLTFGGGTKVEIK , give the reported optical density.
result: 0.313
